# uninfected host cell viability annotations
Tested on: HFF
PROTOCOL DESCRIPTION: uninfected host cell viability relative to vehicle control; higher = less host cell toxicity
CONDITION DETAILS: 5 µM; 72 h; oxygen 21 %
Structures can show the parent of a compound that is named as a salt. Screen size: about 1,000 compounds; about 15 (2%) showed an effect of 50% or more. This is one part of a sample in which strong results are shown more often than they occur.
All answers are understood in %, so give the number only.

The examples below pair each entry with its known result.
{"COMPOUND": "O=c1[nH]nc(Sc2ncc([N+](=O)[O-])s2)n1-c1ccc2c(c1)OCCO2", "uninfected host cell viability, %": 99.6}
{"COMPOUND": "CCC(=O)NC[C@H](Cc1ccc(OCCc2nc(-c3ccccc3)oc2C)cc1)N/C(C)=C\\C(=O)c1ccc(C(F)(F)F)cc1", "uninfected host cell viability, %": 102}
{"COMPOUND": "CCCCN1CCCC1CNC(=O)c1cc(C#N)c2ccccc2c1OC (centres undefined) [Nafadotride]", "uninfected host cell viability, %": 84.8}
{"COMPOUND": "COC(=O)c1sccc1S(=O)(=O)Nc1ccc(Nc2ccccc2)cc1OC", "uninfected host cell viability, %": 77.8}
{"COMPOUND": "CC1c2ccccc2CN1CC1=NCCN1 (centres undefined)", "uninfected host cell viability, %": 89}

## Input Name the reported uninfected host cell viability value associated with the compound COC(=O)C1=C(C)NC(C)=C(C(=O)OC(C)C)C1c1cccc2nonc12 (centres undefined)
## Output 104

## Input Name the reported uninfected host cell viability value associated with the compound `Cc1cc(C)cc(C(=O)N(C)[C@H](Cc2ccc(-c3ccccc3)cc2)C(=O)N[C@@H](Cc2c[nH]c3ccccc23)C(=O)O)c1`
## Output 84

## Input Name the reported uninfected host cell viability value associated with the compound COC(=O)C1=C(C)NC(C)=C(C(=O)NCCCN2CCC(c3ccccc3)(c3ccccc3)CC2)C1c1ccc([N+](=O)[O-])cc1 (centres undefined)
## Output 81.9

## Input Name the reported uninfected host cell viability value associated with the compound Cc1ccccc1N1CCN(S(=O)(=O)C[C@]23CC[C@H](C[C@@H]2NC(=O)[C@@H](N)CCS(C)(=O)=O)C3(C)C)CC1 [L-368,899 hydrochloride]
## Output 87.1

* * *

Test system: HFF
PROTOCOL DESCRIPTION: uninfected host cell viability relative to vehicle control; higher = less host cell toxicity
CONDITION DETAILS: 5 µM; 72 h; oxygen 21 %
Structures can show the parent of a compound that is named as a salt. In all, about 1,000 compounds went through this assay and about 15 (2%) showed an effect of 50% or more. What follows is part of a selection rich in strong results, with near analogues and random picks from the rest.
MEASURED PROPERTY: uninfected host cell viability (%)
All answers are understood in %, so give the number only.

The examples below pair each entry with its known result.
{"COMPOUND": "COC(=O)C[C@](O)(CCCC(C)(C)O)C(=O)O[C@@H]1C(OC)=C[C@]23CCCN2CCc2cc4c(cc2[C@H]13)OCO4 [Homoharringtonine]", "TARGET UNDER TEST": "HFF", "uninfected host cell viability, %": 28.6}
{"COMPOUND": "O=C(O)COc1cccc(-c2ocnc2-c2nc(-c3ccccc3)c(-c3ccccc3)o2)c1", "TARGET UNDER TEST": "HFF", "uninfected host cell viability, %": 105}
{"COMPOUND": "CCCCCCCCCCCCCCCCn1cc[n+](Cc2ccccc2)c1C", "TARGET UNDER TEST": "HFF", "uninfected host cell viability, %": 32}
{"COMPOUND": "COc1cc2c(Nc3ccc(NC(=O)c4ccccc4)cc3)ncnc2cc1OCCCN1CCOCC1", "TARGET UNDER TEST": "HFF", "uninfected host cell viability, %": 64.7}

## Input Name the reported uninfected host cell viability value associated with the compound `COc1ccc(NC(=O)c2ccc(-c3ccc(-c4noc(C)n4)cc3C)cc2)cc1OCCN(C)C`
## Output 36.9

## Input Name the reported uninfected host cell viability value associated with the compound COc1ccccc1C1(O)CCN(CCCn2c3ccccc3c3ccccc32)CC1 [NNC 05-2090 hydrochloride]
## Output 81.9

## Input Name the reported uninfected host cell viability value associated with the compound `CCN(CC)CCCCC1CCN(CC(=O)N2c3ccccc3C(=O)Nc3cccnc32)CC1`
## Output 89.2

## Input Name the reported uninfected host cell viability value associated with the compound CS(=O)(=O)Nc1c(O)ccc2c1CCCC2C1=NCCN1 (centres undefined)
## Output 84.9

## Input Name the reported uninfected host cell viability value associated with the compound COc1cc(CNC(=O)CCCC/C=C/C(C)C)ccc1O [(E)-Capsaicin]
## Output 88.1

## Input Name the reported uninfected host cell viability value associated with the compound `CCCCC/N=c1\ccn(Cc2ccccc2)c2ccccc12`
## Output 83.1

## Input Name the reported uninfected host cell viability value associated with the compound `COc1ccc(NC(=O)c2ccc(-c3ccc(-c4noc(C)n4)cc3C)cc2)cc1N1CCN(C)CC1`
## Output 70.2

## Input Name the reported uninfected host cell viability value associated with the compound `Cc1[nH]c(/C=C2\C(=O)Nc3ccc(S(=O)(=O)Cc4c(Cl)cccc4Cl)cc32)c(C)c1C(=O)N1CCC[C@@H]1CN1CCCC1`
## Output 89.5

## Input Name the reported uninfected host cell viability value associated with the compound `CN(CCOc1ccc(-c2ccc3c(c2)OCO3)cc1C(C)(C)C)CC(=O)O`
## Output 89.6

## Input Name the reported uninfected host cell viability value associated with the compound `CCCCCCCCc1ccc(-c2ccc(C(=O)O)cc2)cc1`
## Output 85.5

## Input Name the reported uninfected host cell viability value associated with the compound C1CCC2(CC1)CCNCC2 [4,4-Pentamethylenepiperidine hydrochloride]
## Output 84.8
